biological target: IL16_3, Q14005; assay: holdup assay; set-up: key: below the threshold = too weak to quantify, mostly under pKd 3.1 to 4; settings: plain residues with an end cap or a label only (N-terminal biotin on a linker: ttds)
Sequence (Q14005 1107-1207): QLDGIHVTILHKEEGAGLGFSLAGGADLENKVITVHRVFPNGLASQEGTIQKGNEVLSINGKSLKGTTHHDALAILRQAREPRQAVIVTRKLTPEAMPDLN
Quantity kind: pKd

The examples below pair each entry with its known result.
[[record]]
binder = "SEKHFRETEV [HTLV1-TAX1, P03409]"
result = "below the threshold"

[[record]]
binder = "DPLTPSRSQL [DGKK, Q5KSL6]"
result = "below the threshold"

[[record]]
binder = "LCALPKVTTV [AGMAT, Q9BSE5]"
result = "below the threshold"

[[record]]
binder = "DPRNTQTSQI [ABRAXAS2, Q15018]"
result = "below the threshold"

[[record]]
binder = "RTRQRNETQV [HPV51-E6, P26554]"
result = "below the threshold"

[[record]]
binder = "GGPKEEESPV [SLC16A1, P53985]"
result = "below the threshold"

[[record]]
binder = "LDSQIQETSI [MAP4, P27816]"
result = "below the threshold"

[[record]]
binder = "PKRPFVESNV [TANC2, Q9HCD6]"
result = "below the threshold"


Report pKd for each item below.
1. QFQYAKESYI [TAGAP, Q8N103]
2. VNKVWDQSSV [CIT, O14578]

a:
1. below the threshold
2. below the threshold
